experiment: protein stability index of a GFP-peptide fusion (GPS, HEK-293T) (PSI 1-6); higher = more stable; details: treatment: MLN4924 1 uM, 8 h; c terminus: a fixed tail appended;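 note: 24-mer peptide tiles fused after GFP, lentivirally expressed, FACS-sorted into six equal bins by GFP/DsRed ratio, decoded by Illumina sequencing, PSI is the read-weighted mean bin number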
So basically, the class depends on measured protein stability index, and the ranges are bin 1 (below 3), bin 2 (3 to below 4), bin 3 (4 or more)

## Input Would you mind sorting HRNQCQYCRLKKCLKVGMRREAVQ [NR2F2] into the appropriate category?
## Output bin 1

###

experiment: protein stability index of a GFP-peptide fusion (GPS, HEK-293T) (PSI 1-6); higher = more stable; conditions: treatment: MLN4924 1 uM, 8 h; c terminus: a fixed tail appended
Here the recorded protein stability index is given for each entry.
Lab note: record the figure alone, no unit after it.

Completed entries (count: 10):
## Input Item under review: SADVNARDKNWQTPLHVAAANKAV [ANKRD44] . Reported protein stability index?
## Output 4.07

## Input Item under review: SKAWHQKSHFQNSREWSGKEKWWD [PBXIP1] . Reported protein stability index?
## Output 3.2

## Input Item under review: MGMNMNIGMSAAGMGLTGTMGMGM [CLINT1] . Reported protein stability index?
## Output 2.2

## Input Item under review: ETIQGFWLLTKIDHWNNEKERILL [TPRG1] . Reported protein stability index?
## Output 2.73

## Input Item under review: CVDVVFYNPDLKKVVEAHKIVLCA [RHOBTB3] . Reported protein stability index?
## Output 2.74

## Input Item under review: TAGPITGLVYRLNRFRVEISFHFE [TRIM43] . Reported protein stability index?
## Output 3.2

## Input Item under review: SRPNGTSAMLLVTLGKVLKVIVVM [MED27] . Reported protein stability index?
## Output 2.93

## Input Item under review: VPPGVVNIVFGTGPRVGEALVSHP [ALDH8A1] . Reported protein stability index?
## Output 2.27

## Input Item under review: SQEEAQGLPSSELDAVENQLKWAS [ZNF24] . Reported protein stability index?
## Output 5.08

## Input Item under review: HDKIRPISSIGQVQSYMEHYCNSS [SPACA9] . Reported protein stability index?
## Output 3.72

Next:
## Input Item under review: GNFESLDLAEFAKKQPWWRKLFGQ [FUNDC2] . Reported protein stability index?
## Output 3.29

## Input Item under review: MGGCPVRKRRRNGSKEGNHHSTQP [FAM104B] . Reported protein stability index?
## Output 4.86

## Input Item under review: ALARKQAQEQLRPQTPEPVEGRKH [RSPH3] . Reported protein stability index?
## Output 5.31
